- Test system: Rhabdomyosarcoma cell lines
- Test Summary: IC50 for mocetinostat across individual cell lines from different sarcoma subtypes (FIG. 1)
- Assay type: cell-based
Assay Endpoint: IC50

Provide Rhabdomyosarcoma cell lines IC50 reading for Nc1ccccc1NC(=O)c1ccc(CNc2nccc(-c3cccnc3)n2)cc1 .
< 100 nM
